System: A549
Experiment: Cytotoxicity against human A549 cells assessed as inhibition of cell viability incubated for 48 hrs by MTT assay
Format: functional, cell-based
Settings: A549, 48 h
endpoint.label: IC50

compound | result
COc1cc2ncnc(Nc3ccc4oc(C(=O)/C=C/c5ccc(N(C)C)cc5)cc4c3)c2cc1OC | > 25 µM

Exercise: Which measured IC50 value corresponds to COc1cc2ncnc(Nc3ccc4oc(C(=O)/C=C/c5ccc(N6CCN(C)CC6)cc5)cc4c3)c2cc1OC ?
Solution: > 25 µM

Exercise: Which measured IC50 value corresponds to COc1cc2ncnc(Nc3ccc4oc(C(=O)/C=C/c5ccc(C)o5)cc4c3)c2cc1OC ?
Solution: > 25 µM

Exercise: Which measured IC50 value corresponds to COc1cc2ncnc(Nc3ccc4oc(C(=O)/C=C/c5ccc(N6CCOCC6)cc5)cc4c3)c2cc1OC ?
Solution: > 25 µM

Exercise: Which measured IC50 value corresponds to COc1cc2ncnc(Nc3ccc4oc(C(=O)/C=C/c5ccncc5)cc4c3)c2cc1OC ?
Solution: > 25 µM

Exercise: Which measured IC50 value corresponds to COc1cc2ncnc(Nc3ccc4oc(C(=O)/C=C/c5ccc(O)cc5)cc4c3)c2cc1OC ?
Solution: 6.27 µM

Exercise: Which measured IC50 value corresponds to COc1cc2ncnc(Nc3ccc4oc(C(=O)/C=C/c5ccccc5)cc4c3)c2cc1OC ?
Solution: 21.6 µM

Exercise: Which measured IC50 value corresponds to COc1cc2ncnc(Nc3ccc4oc(C(=O)/C=C/c5c[nH]c6ccc(Br)cc56)cc4c3)c2cc1OC ?
Solution: > 25 µM

Exercise: Which measured IC50 value corresponds to COc1cc2ncnc(Nc3ccc4oc(C(=O)/C=C/c5ccccn5)cc4c3)c2cc1OC ?
Solution: > 25 µM

Exercise: Which measured IC50 value corresponds to COc1cc2ncnc(Nc3ccc4oc(C(=O)/C=C/c5cc6ccccc6o5)cc4c3)c2cc1OC ?
Solution: > 25 µM

Exercise: Which measured IC50 value corresponds to COc1cc2ncnc(Nc3ccc4oc(C(=O)/C=C/c5cccs5)cc4c3)c2cc1OC ?
Solution: > 25 µM

Exercise: Which measured IC50 value corresponds to COc1cc2ncnc(Nc3ccc4oc(C(=O)/C=C/c5ccc(F)c(F)c5)cc4c3)c2cc1OC ?
Solution: > 25 µM

Exercise: Which measured IC50 value corresponds to COc1ccc(/C=C/C(=O)c2cc3cc(Nc4ncnc5cc(OC)c(OC)cc45)ccc3o2)cc1OC ?
Solution: > 25 µM

Hey, just so you know, these numbers are from ChEMBL document CHEMBL6114937.
